# assayTarget: T1, recombinant cynomolgus monkey CD38 extracellular domain protein (ACROBiosystems) (cynomolgus monkey, UniProt Q5VAN0 44-301)
# T1 construct: Bought extracellular domain protein; also called cyno CD38; recombinant cyno CD38
# assayMethodText: ELISA screen of hybridoma supernatants on recombinant CD38
reportedEndpoint: binding result

>>> datavalue("Clone H (antibody, V domains shown, Murine hybridoma antibody tested as supernatant; also called anti-CD38 murine hybridoma clone H) VH: QVPLHQSGPELIKPGASLKISCKASDSAFNNSWMNWVRQRPGKGLEWIGWIYPGDDDTKYNGKFMGKATLTADKSSGTAYMQLSSLTSEDSAVYFCARGRWGMDYWGQGTSVTVSS VL: DIVMTQFHNFMSTSVGDRVNINCKASQNVVTAVAWYQQKPGQSPKLLIYWASTRHTGVPDRFTGSGSGTDFTLTISNVQSEDLADYFCQQYSNYPFTFGSGTKLEIK")
"binds"
>>> datavalue("Clone D (antibody, V domains shown, Murine hybridoma antibody tested as supernatant; also called anti-CD38 murine hybridoma clone D) VH: QIQLVQSGPELKKPGETVKISCKASGYTFTNYGMNWVKQAPGEDLKWMGWLNTNTGEPTYAEEFKGRFAFSLETSASTAYLQINNLRNEDTATYFCARWYYGSSDNSYAMDYWGQGTSVTVSS VL: ETIVTQFPASLSMAIGEKVTIRCITSTDIDDDMNWYQQRPGEPPKLLISEGNTLRPGVPSRFSSSGYGTDFVFTFENMLSEDVADYYCLQSDSLPYTVGGGTRLEIK")
"binds"
>>> datavalue("Clone C (antibody, V domains shown, Murine hybridoma antibody tested as supernatant; also called anti-CD38 murine hybridoma clone C) VH: EVQLQQSGTVLARPGASVKMSCKASGYTFTRYWMHWVKQRPGQDLEWIGGFYPGNSDTRYNQKFKDKAKLTAVTSTSTAYMELSSLTNEDSAVYYCTRGDRHDEGFAYWGQGTLVTVSA VL: DIQMTQSPASLSASVGETVTITCRASGNIHNYLAWYQQKQGKSPQLLVYNAKTLPDGVPSRFSGSGSGTQYSLKINSLQPEDFGTYYCQNIWTNYTFGGGTKLEIK")
"binds"

Reference for the values: patent US20250051473A1
